measured-on: FoxA (Pseudomonas aeruginosa, UniProt Q9I116)
Construct: Full-length FoxA, purified in nonyl glucopyranoside
assay-text: tryptophan fluorescence quenching (Kd […]); also ITC in nanodiscs (Kd […]) and co-crystal structures without and with TonBCt
measure: pKd
Answers are plain numbers, as −log10 of the molar value.

Task item: Assign pKd to the following record: CC(=O)N([O-])CCCCCNC(=O)CCC(=O)N([O-])CCCCCNC(=O)CCC(=O)N([O-])CCCCCN.[Fe+3] [FoaB, ferrioxamine B]
Reply: 7.00

These entries and their values trace back to paper PMC6699858.
